system: Saccharomyces cerevisiae; assay: protein stability index of tFT-peptide fusion (C-terminal peptide) (PSI (0-1 scale)); higher = more stable (slower turnover); settings: genetic background: wild type; temperature: 30 C;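 also: PSI is a weighted mean of sequencing reads over stability bins, variants kept only with over 10 reads, mCherry proximal and sfGFP distal, peptide attached via GGGS linker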
Class Fulfilled: protein stability index at least 0.7. Class Not fulfilled: protein stability index below 0.7.

{"Sequence content": "SFPPSPLPPPPR", "Assigned category": "Not fulfilled"}
{"Sequence content": "FGSDQFVCRLWS", "Assigned category": "Fulfilled"}
{"Sequence content": "LCLICLFLLKVL", "Assigned category": "Not fulfilled"}
{"Sequence content": "CDFVFEFSCVQV", "Assigned category": "Not fulfilled"}
{"Sequence content": "HFFSFLACFVDL", "Assigned category": "Not fulfilled"}
{"Sequence content": "PCLSFPPALRAA", "Assigned category": "Not fulfilled"}
{"Sequence content": "TTSPRNMIIYYR", "Assigned category": "Not fulfilled"}
{"Sequence content": "KNKGKHKGGKYR", "Assigned category": "Fulfilled"}
{"Sequence content": "RFCQSHTSVSSF", "Assigned category": "Not fulfilled"}

Origin of values: the supplement of paper PMC10724198
